The reported numbers originate from paper PMC5354820.

assay: Pharmacokinetics in cynomolgus monkeys; format: in vivo; conditions: cynomolgus monkey, plasma; monkeys, oral 10 mg/kg; read-out: Cmax
Measure: Cmax (ng/mL)
Answer with a number only, understood to be in ng/mL.

INPUT: GET /values?readout=Cmax&item= CNCc1ccc(-c2cc3cc(F)cc(C(N)=O)c3o2)cc1 [MPH]
OUTPUT: 323

* * *

experiment: Pharmacokinetics in cynomolgus monkeys; format: in vivo; details: cynomolgus monkey, plasma; monkey, oral doses of 20 mg/kg or above; read-out: plasma Cmax
Measure: Cmax

INPUT: GET /values?readout=Cmax&item= CNCc1ccc(-c2cc3cc(F)cc(C(N)=O)c3o2)cc1
OUTPUT: > 1000 nM

* * *

assay: Pharmacokinetics in SD rats; assay type: in vivo; settings: Sprague-Dawley (SD), rat, plasma; rats, oral 10 mg/kg; read-out: t1/2 (converted)
Measure: half-life (h)
Answer with a number only, understood to be in h.

INPUT: GET /values?readout=half-life&item= CNCc1ccc(-c2cc3cc(F)cc(C(N)=O)c3o2)cc1
OUTPUT: 1.07

* * *

test: MPH concentrations and PK in plasma and xenografts, MDA-MB-436 xenograft model; format: in vivo, nude mice; details: nude, mouse, xenograft (tumor), po, 40 mg/kg, xenograft, 40 mg/kg single oral dose; read-out: Tmax
Measure: Tmax (h)
Answer with a number only, understood to be in h.

INPUT: GET /values?readout=Tmax&item= CNCc1ccc(-c2cc3cc(F)cc(C(N)=O)c3o2)cc1
OUTPUT: 3

* * *

experiment: Pharmacokinetics in cynomolgus monkeys; format: in vivo; settings: cynomolgus, cynomolgus monkey, plasma, iv; monkeys, i.v. bolus 2.5 mg/kg; read-out: Vss
Measure: Vd

INPUT: GET /values?readout=Vd&item= CNCc1ccc(-c2cc3cc(F)cc(C(N)=O)c3o2)cc1 [MPH]
OUTPUT: 9.56 L/kg

* * *

assay: MPH concentrations and PK in plasma and xenografts, MDA-MB-436 xenograft model; format: in vivo, nude mice; details: nude, mouse, xenograft (tumor); xenograft, 40 mg/kg single oral dose
Measure: MRT (h)
Answer with a number only, understood to be in h.

INPUT: GET /values?readout=MRT&item= CNCc1ccc(-c2cc3cc(F)cc(C(N)=O)c3o2)cc1 [MPH]
OUTPUT: 6.18

* * *

test: Pharmacokinetics in SD rats; assay type: in vivo; details: Sprague-Dawley (SD), rat, plasma, po, 10 mg/kg, rats, oral 10 mg/kg; read-out: F
Measure: bioavailability (%)
Answer with a number only, understood to be in %.

INPUT: GET /values?readout=bioavailability&item= CNCc1ccc(-c2cc3cc(F)cc(C(N)=O)c3o2)cc1 [MPH]
OUTPUT: 46.4

* * *

test: Pharmacokinetics in cynomolgus monkeys; format: in vivo; conditions: cynomolgus monkey, plasma; monkeys, oral 5 mg/kg; read-out: t1/2 (converted)
Measure: half-life (h)
Answer with a number only, understood to be in h.

INPUT: GET /values?readout=half-life&item= CNCc1ccc(-c2cc3cc(F)cc(C(N)=O)c3o2)cc1 [MPH]
OUTPUT: 2.16

* * *

assay: Pharmacokinetics in SD rats; type: in vivo; conditions: Sprague-Dawley (SD), rat, plasma; rats, oral 10 mg/kg; read-out: Tmax
Measure: Tmax (h)
Answer with a number only, understood to be in h.

INPUT: GET /values?readout=Tmax&item= CNCc1ccc(-c2cc3cc(F)cc(C(N)=O)c3o2)cc1 [MPH]
OUTPUT: 3

* * *

assay: MPH concentrations and PK in plasma and xenografts, MDA-MB-436 xenograft model; assay type: in vivo, nude mice; settings: nude, mouse; plasma, 160 mg/kg single oral dose
Measure: MRT (h)
Answer with a number only, understood to be in h.

INPUT: GET /values?readout=MRT&item= CNCc1ccc(-c2cc3cc(F)cc(C(N)=O)c3o2)cc1
OUTPUT: 8.7

* * *

system: DoTc2-4510 cells; assay: Proliferative inhibition assay, DoTc2-4510; format: cell-based; conditions: Homo sapiens, DoTc2-4510, 168 h, read-out: IC50 (mean ± SD)
Measure: pIC50
For clarity, pIC50 is expressed as the negative log10 of concentration in mol/L.

INPUT: GET /values?readout=pIC50&item= O=C(c1cc(Cc2n[nH]c(=O)c3ccccc23)ccc1F)N1CCN(C(=O)C2CC2)CC1 [AZD2281, olaparib, reference compound]
OUTPUT: 6.05

* * *

assay: Pharmacokinetics in cynomolgus monkeys; assay type: in vivo; settings: cynomolgus monkey, plasma; monkeys, oral 20 mg/kg; read-out: Tmax
Measure: Tmax (h)
Answer with a number only, understood to be in h.

INPUT: GET /values?readout=Tmax&item= CNCc1ccc(-c2cc3cc(F)cc(C(N)=O)c3o2)cc1 [MPH]
OUTPUT: 4

* * *

test: Pharmacokinetics in cynomolgus monkeys; assay type: in vivo; details: cynomolgus monkey, plasma; monkeys, oral 5 mg/kg; read-out: F
Measure: bioavailability (%)
Answer with a number only, understood to be in %.

INPUT: GET /values?readout=bioavailability&item= CNCc1ccc(-c2cc3cc(F)cc(C(N)=O)c3o2)cc1
OUTPUT: 42.4

* * *

assay: MPH concentrations and PK in plasma and xenografts, MDA-MB-436 xenograft model; type: in vivo, nude mice; details: nude, mouse, xenograft (tumor); xenograft, 160 mg/kg single oral dose
Measure: half-life (min)
Answer with a number only, understood to be in min.

INPUT: GET /values?readout=half-life&item= CNCc1ccc(-c2cc3cc(F)cc(C(N)=O)c3o2)cc1
OUTPUT: 419

* * *

test: MPH concentrations and PK in plasma and xenografts, MDA-MB-436 xenograft model; assay type: in vivo, nude mice; conditions: nude, mouse, xenograft (tumor); xenograft, 160 mg/kg single oral dose
Measure: Cmax (ng/g)
Answer with a number only, understood to be in ng/g.

INPUT: GET /values?readout=Cmax&item= CNCc1ccc(-c2cc3cc(F)cc(C(N)=O)c3o2)cc1
OUTPUT: 44700

* * *

tested on: Capan-1 cells; assay: Proliferative inhibition assay, Capan-1; type: cell-based; conditions: Homo sapiens, CAPAN-1, 168 h, read-out: IC50 (mean ± SD)
Measure: IC50 (nM)
Answer with a number only, understood to be in nM.

INPUT: GET /values?readout=IC50&item= O=C(c1cc(Cc2n[nH]c(=O)c3ccccc23)ccc1F)N1CCN(C(=O)C2CC2)CC1 [AZD2281, olaparib, reference compound]
OUTPUT: 1730

* * *

assay: Pharmacokinetics in SD rats; type: in vivo; settings: SD, rat, plasma, iv; rats, i.v. bolus 5 mg/kg; read-out: t1/2 (converted)
Measure: half-life (h)
Answer with a number only, understood to be in h.

INPUT: GET /values?readout=half-life&item= CNCc1ccc(-c2cc3cc(F)cc(C(N)=O)c3o2)cc1 [MPH]
OUTPUT: 1.25

* * *

assay: Pharmacokinetics in SD rats; type: in vivo; details: SD, rat, plasma; rats, oral 20 mg/kg; read-out: MRT0-∞
Measure: MRT inf (h)
Answer with a number only, understood to be in h.

INPUT: GET /values?readout=MRT inf&item= CNCc1ccc(-c2cc3cc(F)cc(C(N)=O)c3o2)cc1 [MPH]
OUTPUT: 3.54

* * *

experiment: Pharmacokinetics in SD rats; type: in vivo; conditions: SD, rat, plasma; rats, oral 40 mg/kg
Measure: AUC(0-t) (ng·h/mL)
Answer with a number only, understood to be in ng·h/mL.

INPUT: GET /values?readout=AUC(0-t)&item= CNCc1ccc(-c2cc3cc(F)cc(C(N)=O)c3o2)cc1
OUTPUT: 4010

* * *

test: Pharmacokinetics in SD rats; format: in vivo; conditions: SD, rat, plasma, iv; rats, i.v. bolus 5 mg/kg
Measure: AUC(0-inf) (ng·h/mL)
Answer with a number only, understood to be in ng·h/mL.

INPUT: GET /values?readout=AUC(0-inf)&item= CNCc1ccc(-c2cc3cc(F)cc(C(N)=O)c3o2)cc1
OUTPUT: 487

* * *

test system: V79 cells; assay: Proliferative inhibition assay, V79; format: cell-based, Chinese hamster; conditions: Cricetulus griseus, V79, 72 h, read-out: IC50 (mean ± SD)
Measure: pIC50
For clarity, pIC50 is expressed as the negative log10 of concentration in mol/L.

INPUT: I'm curious: which pIC50 was measured for O=C(c1cc(Cc2n[nH]c(=O)c3ccccc23)ccc1F)N1CCN(C(=O)C2CC2)CC1 [AZD2281, olaparib, reference compound] tested on V79 cells?
OUTPUT: 4.81

* * *

Biological target: TNKS2 (Homo sapiens, UniProt Q9H2K2)
Sequence (Q9H2K2 1-1166): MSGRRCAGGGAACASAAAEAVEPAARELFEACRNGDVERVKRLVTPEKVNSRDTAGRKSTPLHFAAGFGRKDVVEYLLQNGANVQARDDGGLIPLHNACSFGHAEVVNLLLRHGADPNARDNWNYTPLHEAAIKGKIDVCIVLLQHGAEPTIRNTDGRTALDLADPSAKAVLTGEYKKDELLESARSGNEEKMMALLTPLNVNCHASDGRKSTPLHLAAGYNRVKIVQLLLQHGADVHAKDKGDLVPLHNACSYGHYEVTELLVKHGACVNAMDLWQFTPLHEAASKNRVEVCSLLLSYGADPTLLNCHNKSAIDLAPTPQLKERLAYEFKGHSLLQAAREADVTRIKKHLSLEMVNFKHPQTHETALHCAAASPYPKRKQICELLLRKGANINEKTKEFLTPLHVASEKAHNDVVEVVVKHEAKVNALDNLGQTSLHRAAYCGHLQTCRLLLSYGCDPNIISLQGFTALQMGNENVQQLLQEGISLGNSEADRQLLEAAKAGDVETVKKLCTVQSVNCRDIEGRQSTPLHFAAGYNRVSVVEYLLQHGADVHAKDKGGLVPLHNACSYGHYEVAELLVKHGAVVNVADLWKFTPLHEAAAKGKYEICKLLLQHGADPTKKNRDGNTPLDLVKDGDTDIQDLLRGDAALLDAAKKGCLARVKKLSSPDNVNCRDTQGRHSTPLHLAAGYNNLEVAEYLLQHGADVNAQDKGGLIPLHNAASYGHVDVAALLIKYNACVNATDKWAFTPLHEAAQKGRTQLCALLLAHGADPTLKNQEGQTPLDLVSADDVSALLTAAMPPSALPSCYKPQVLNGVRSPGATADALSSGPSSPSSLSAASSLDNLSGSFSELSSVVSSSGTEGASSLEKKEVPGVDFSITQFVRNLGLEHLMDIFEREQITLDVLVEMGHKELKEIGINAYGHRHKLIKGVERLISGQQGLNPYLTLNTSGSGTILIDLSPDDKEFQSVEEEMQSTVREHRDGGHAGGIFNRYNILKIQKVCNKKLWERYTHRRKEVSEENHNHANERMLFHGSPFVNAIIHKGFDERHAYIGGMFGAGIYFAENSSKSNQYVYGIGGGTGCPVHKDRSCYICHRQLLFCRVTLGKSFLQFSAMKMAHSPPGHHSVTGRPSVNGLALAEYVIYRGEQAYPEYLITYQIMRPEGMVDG
Measure: IC50 (nM)
Answer with a number only, understood to be in nM.

INPUT: GET /values?readout=IC50&item= CNCc1ccc(-c2cc3cc(F)cc(C(N)=O)c3o2)cc1
OUTPUT: 1300
